Overview of recorded IC50 for various compounds
- TARGET UNDER TEST: recombinant human Myt1 (full length PKMYT1) (Homo sapiens (Human), UniProt Q99640)
- Sequence (Q99640 whole entry): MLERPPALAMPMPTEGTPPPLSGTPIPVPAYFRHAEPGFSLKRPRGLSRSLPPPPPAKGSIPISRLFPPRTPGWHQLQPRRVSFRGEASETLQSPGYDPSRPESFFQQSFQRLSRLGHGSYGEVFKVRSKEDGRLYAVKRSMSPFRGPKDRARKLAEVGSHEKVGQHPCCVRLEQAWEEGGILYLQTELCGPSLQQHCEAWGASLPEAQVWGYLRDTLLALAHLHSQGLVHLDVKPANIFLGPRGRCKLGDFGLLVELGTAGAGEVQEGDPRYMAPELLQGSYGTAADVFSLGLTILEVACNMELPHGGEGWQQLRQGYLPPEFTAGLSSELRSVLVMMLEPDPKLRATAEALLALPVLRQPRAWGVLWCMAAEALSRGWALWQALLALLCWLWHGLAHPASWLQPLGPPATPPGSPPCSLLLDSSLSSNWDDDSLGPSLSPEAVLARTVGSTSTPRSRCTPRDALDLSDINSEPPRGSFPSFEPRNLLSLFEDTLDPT
- TEST SUMMARY: Recombinant human Myt1 kinase assay (ADP-Glo)
- MEASUREMENT SETUP: 10 μM ATP
MEASUREMENT NAME: IC50 (nM)

In [3]: df
Out[3]:
                               smiles_input  observed_result
0  Cc1ccc2[nH]ncc2c1-c1nc(-c2cccc(-n3cccn3)c2)nc(C(N)=O)c1N               13
1  Cc1ccc2[nH]ncc2c1-c1nc(-c2cccc(F)c2NC(=O)C2(C)CC2)nc(C(N)=O)c1N                6
2  Cc1ccc2[nH]ncc2c1-c1nc(-c2ccc(C(=O)O)s2)nc(C(N)=O)c1N              198
3  CCNC(=O)c1ccccc1-c1nc(C(N)=O)c(N)c(-c2c(C)ccc3[nH]ncc23)n1             4050

====

- TARGET UNDER TEST: recombinant human Myt1 (full length PKMYT1) (Homo sapiens (Human), UniProt Q99640)
- TEST SUMMARY: Recombinant human Myt1 kinase assay (ADP-Glo)
- MEASUREMENT SETUP: 10 μM ATP
MEASUREMENT NAME: IC50 (nM)

>>> print(df.to_string())
                                   compound  output_unit  observed_result
0  Cc1cccc(NC(=O)C2(C)CC2)c1-c1nc(C(N)=O)c(N)c(-c2c(C)ccc3[nH]ncc23)n1 [Compound 457]           nM              516
1  Cc1ccc2[nH]ncc2c1-c1nc(-c2ccc(C(F)(F)F)cc2)nc(C(N)=O)c1N [Compound 104]           nM              317
2  Cc1ccc2[nH]ncc2c1-c1nc(-c2cccc(CN3CCOCC3)c2)nc(C(N)=O)c1N [Compound 283]           nM               30
3  Cc1ccc2[nH]ncc2c1-c1nc(-c2cccc(CO)c2)nc(C(N)=O)c1N [Compound 305]           nM               81
4  Cc1ccc2[nH]ncc2c1-c1cc(-c2ccnc(OC3CCOCC3)n2)nc(C(N)=O)c1N (atropisomer, axis not shown) [Compound 231]           nM              231
5  COC(COc1cccc(-c2cc(-c3c(C)ccc4[nH]ncc34)c(N)c(C(N)=O)n2)n1)C1CC1 (stereo not shown) [Compound 344]           nM                7
6  Cc1ccc2[nH]ncc2c1-c1cc(-c2ccnc(OCCn3ccnc3)n2)nc(C(N)=O)c1N [Compound 315]           nM                9

====

- TARGET UNDER TEST: recombinant human Myt1 (full length PKMYT1) (Homo sapiens (Human))
- TEST SUMMARY: Recombinant human Myt1 kinase assay (ADP-Glo)
- MEASUREMENT SETUP: 10 μM ATP
IC50 overview
MEASUREMENT NAME: IC50

>>> df
                                    compound                         target_under_test  observed_result
 0  Cc1ccc(O)cc1-c1nc(-c2ccnc(N)c2)nc(C(N)=O)c1N  recombinant human Myt1 (full length PKMYT1) (Homo sapiens (Human))            10 nM
 1  Cc1ccc2[nH]ncc2c1-c1nc(-c2ccnc(C(F)(F)F)c2)nc(C(N)=O)c1N  recombinant human Myt1 (full length PKMYT1) (Homo sapiens (Human))            27 nM
 2  Cc1ccc2[nH]ncc2c1-c1nc(-c2cccc(N3CCOCC3)c2)nc(C(N)=O)c1N  recombinant human Myt1 (full length PKMYT1) (Homo sapiens (Human))            19 nM
 3  Cc1nnc(-c2cccc(-c3nc(C(N)=O)c(N)c(-c4c(C)ccc5[nH]ncc45)n3)c2)o1  recombinant human Myt1 (full length PKMYT1) (Homo sapiens (Human))             6 nM
 4  Cc1ccc2[nH]ncc2c1-c1nc(-c2cccc(C(F)(F)F)c2)nc(C(N)=O)c1N  recombinant human Myt1 (full length PKMYT1) (Homo sapiens (Human))           100 nM
 5  CCC(COc1cccc(-c2cc(-c3c(C)ccc4[nH]ncc34)c(N)c(C(N)=O)n2)c1)OC (stereo not shown)  recombinant human Myt1 (full length PKMYT1) (Homo sapiens (Human))           330 nM
 6  NC(=O)c1nc(-c2ccccc2)nc(-c2c(Cl)ccc3[nH]ncc23)c1N  recombinant human Myt1 (full length PKMYT1) (Homo sapiens (Human))            15 nM
 7  Cc1ccc2[nH]ncc2c1-c1nc(-c2ccc(F)cc2Nc2cc(C3CC3)ncn2)nc(C(N)=O)c1N  recombinant human Myt1 (full length PKMYT1) (Homo sapiens (Human))            16 nM
 8  Cc1ccc2[nH]ncc2c1-c1cc(-c2ccnc(OC(C)C)n2)nc(C(N)=O)c1N  recombinant human Myt1 (full length PKMYT1) (Homo sapiens (Human))             7 nM
 9  Cc1ccc2[nH]ncc2c1-c1nc(-c2ccccc2NC(C)C(F)(F)F)nc(C(N)=O)c1N (stereo not shown)  recombinant human Myt1 (full length PKMYT1) (Homo sapiens (Human))            11 nM
10  Cc1ccc2[nH]ncc2c1-c1nc(-c2cccc(OCC(=O)O)c2)nc(C(N)=O)c1N  recombinant human Myt1 (full length PKMYT1) (Homo sapiens (Human))            17 nM
11  CC[C@@H](COc1nccc(-c2cc(-c3c(C)ccc4[nH]ncc34)c(N)c(C(N)=O)n2)n1)OC (atropisomer, axis not shown)  recombinant human Myt1 (full length PKMYT1) (Homo sapiens (Human))           400 nM
12  Cc1nc(COc2nccc(-c3cc(-c4c(C)ccc5[nH]ncc45)c(N)c(C(N)=O)n3)n2)co1  recombinant human Myt1 (full length PKMYT1) (Homo sapiens (Human))            20 nM
13  Cc1ccc2[nH]ncc2c1-c1nc(-c2cccc3cnsc23)nc(C(N)=O)c1N  recombinant human Myt1 (full length PKMYT1) (Homo sapiens (Human))             5 nM
14  CSC(C)COc1cccc(-c2cc(-c3c(C)ccc4[nH]ncc34)c(N)c(C(N)=O)n2)n1 (stereo not shown)  recombinant human Myt1 (full length PKMYT1) (Homo sapiens (Human))            14 nM
15  Cc1ccc2[nH]ncc2c1-c1cc(-c2ccnc(N3CCC(O)(c4ccccc4)CC3)n2)nc(C(N)=O)c1N  recombinant human Myt1 (full length PKMYT1) (Homo sapiens (Human))           138 nM
16  Cc1ccc(O)c(C)c1-c1nc(-c2ccnnc2)cc(C(N)=O)c1N  recombinant human Myt1 (full length PKMYT1) (Homo sapiens (Human))             7 nM
17  Cc1ccc2[nH]ncc2c1-c1nc(-c2ccccn2)nc(C(N)=O)c1N  recombinant human Myt1 (full length PKMYT1) (Homo sapiens (Human))            90 nM
18  CCS(=O)(=O)c1ccccc1-c1nc(C(N)=O)c(N)c(-c2c(C)ccc3[nH]ncc23)n1  recombinant human Myt1 (full length PKMYT1) (Homo sapiens (Human))          1010 nM
19  Cc1ccc2[nH]ncc2c1-c1cc(-c2ccnc(OCc3noc(C4CCCC4)n3)n2)nc(C(N)=O)c1N  recombinant human Myt1 (full length PKMYT1) (Homo sapiens (Human))           100 nM
20  Cc1ccc2[nH]ncc2c1-c1nc(-c2cccnc2NCC2CCCCO2)nc(C(N)=O)c1N (stereo not shown)  recombinant human Myt1 (full length PKMYT1) (Homo sapiens (Human))            16 nM
21  Cc1ccc2[nH]ncc2c1-c1nc(-c2cccnc2NCCn2ccnc2C)nc(C(N)=O)c1N  recombinant human Myt1 (full length PKMYT1) (Homo sapiens (Human))            13 nM
22  Cc1ccc2[nH]ncc2c1-c1nc(-c2cccc3c2NC(=O)C3)nc(C(N)=O)c1N  recombinant human Myt1 (full length PKMYT1) (Homo sapiens (Human))             5 nM
23  Cc1ccc2[nH]ncc2c1-c1nc(-c2cccnc2NC(=O)C(C)(C)C)nc(C(N)=O)c1N  recombinant human Myt1 (full length PKMYT1) (Homo sapiens (Human))             3 nM
24  CC(=O)Nc1ccccc1-c1nc(C(N)=O)c(N)c(-c2c(C)ccc3[nH]ncc23)n1  recombinant human Myt1 (full length PKMYT1) (Homo sapiens (Human))             6 nM
25  Cc1ccc2[nH]ncc2c1-c1cc(-c2cccc(N3CCSCC3)n2)nc(C(N)=O)c1N  recombinant human Myt1 (full length PKMYT1) (Homo sapiens (Human))            78 nM
26  Cc1ccc2[nH]ncc2c1-c1nc(-c2ccccc2NCC(F)F)cc(C(N)=O)c1N  recombinant human Myt1 (full length PKMYT1) (Homo sapiens (Human))             4 nM
27  CCCc1ccccc1-c1nc(C(N)=O)c(N)c(-c2c(C)ccc3[nH]ncc23)n1  recombinant human Myt1 (full length PKMYT1) (Homo sapiens (Human))            15 nM
28  NC(=O)c1nc(-c2cccnc2)cc(-c2c(C(F)(F)F)ccc3[nH]ncc23)c1N  recombinant human Myt1 (full length PKMYT1) (Homo sapiens (Human))        > 2000 nM
29  Cc1ccc(O)c(C)c1-c1cc(-c2ccnnc2)nc(C(N)=O)c1N [Compound 63]  recombinant human Myt1 (full length PKMYT1) (Homo sapiens (Human))             5 nM
30  Cc1ccc2[nH]ncc2c1-c1nc(-c2cccnc2NC(=O)C(C)(C)C)c(F)c(C(N)=O)c1N  recombinant human Myt1 (full length PKMYT1) (Homo sapiens (Human))           < 3 nM
